Test system: CYP1A
Test: Cytochrome P450 induction assay in rat primary hepatocytes, CYP1A
Format: in vitro ADME
Conditions: rat, rat primary hepatocytes, probe phenacetin (100 μM in HBSS), 1.0 μM, 3 days
Endpoint label: fold induction at 3 days, 1 µM

Param item = Cc1ccc2cc3c(ccc4ccccc43)c3c2c1CC3 [3-Methyl cholanthrene, reference compound] ; retrieve measured fold induction at 3 days, 1 µM.
> 10

###

Target: UniProt:P10632
Sequence (P10632 whole entry): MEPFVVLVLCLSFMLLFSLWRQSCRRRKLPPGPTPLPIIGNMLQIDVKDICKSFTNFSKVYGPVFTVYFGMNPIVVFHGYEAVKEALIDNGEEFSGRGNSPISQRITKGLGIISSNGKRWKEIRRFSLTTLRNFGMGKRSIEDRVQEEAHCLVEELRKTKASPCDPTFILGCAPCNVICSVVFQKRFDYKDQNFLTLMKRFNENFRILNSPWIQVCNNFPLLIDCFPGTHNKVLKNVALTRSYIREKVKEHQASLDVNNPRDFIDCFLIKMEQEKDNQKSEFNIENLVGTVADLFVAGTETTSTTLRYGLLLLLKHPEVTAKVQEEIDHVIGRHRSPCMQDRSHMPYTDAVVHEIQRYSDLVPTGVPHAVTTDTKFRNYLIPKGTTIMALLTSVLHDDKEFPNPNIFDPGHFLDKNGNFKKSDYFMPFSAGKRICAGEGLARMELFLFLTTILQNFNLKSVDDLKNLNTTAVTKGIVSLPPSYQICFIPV
Assay: CYP450 inhibition assay, pooled human liver microsomes
Details: read-out: IC50 CYP 2C8; probe amodiaquine
Endpoint label: IC50

Param item = CC(C)(N)C(=O)[O-].O.O=[N+]([O-])[O-].[Cu+2].c1cnc2c(c1)ccc1cccnc12 [Cu(II) complex, [Cu(phen)(C-dmg)(H2O)]NO3] ; retrieve measured IC50.
10.3 µM

###

Test system: rat primary hepatocytes
Experiment: Cytotoxicity in rat primary hepatocytes (resazurin)
Conditions: read-out: IC50 (cytotoxic concentration that kills 50% of the cells); 72 h, resazurin assay
Endpoint label: pIC50
By convention, pIC50 is the negative base-10 log of a molar concentration.

Param item = CC(C)(N)C(=O)[O-].O.O=[N+]([O-])[O-].[Cu+2].c1cnc2c(c1)ccc1cccnc12 [Cu(II) complex, [Cu(phen)(C-dmg)(H2O)]NO3] ; retrieve measured pIC50.
5.33

###

Biological target: CYP 2C19 (Homo sapiens)
Sequence (P33261 whole entry): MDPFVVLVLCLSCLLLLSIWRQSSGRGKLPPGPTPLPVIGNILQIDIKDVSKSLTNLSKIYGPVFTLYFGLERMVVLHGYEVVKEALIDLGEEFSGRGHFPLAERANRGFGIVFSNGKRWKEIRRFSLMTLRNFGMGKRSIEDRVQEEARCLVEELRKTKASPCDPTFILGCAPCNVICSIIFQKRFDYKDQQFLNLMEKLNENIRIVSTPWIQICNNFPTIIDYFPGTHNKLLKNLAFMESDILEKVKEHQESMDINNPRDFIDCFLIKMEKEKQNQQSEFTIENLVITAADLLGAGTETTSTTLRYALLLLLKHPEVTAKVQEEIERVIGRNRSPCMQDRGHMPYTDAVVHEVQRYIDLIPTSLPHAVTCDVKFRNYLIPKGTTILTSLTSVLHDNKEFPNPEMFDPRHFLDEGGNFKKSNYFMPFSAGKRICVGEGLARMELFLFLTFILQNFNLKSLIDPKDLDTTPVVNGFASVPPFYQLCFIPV
Experiment: CYP450 inhibition assay, pooled human liver microsomes
Conditions: read-out: IC50 CYP 2C19; probe S-mephenytoin
Endpoint label: IC50 (µM)
Give the value in µM but do not write µM after it.

Param item = CC(C)(N)C(=O)[O-].O.O=[N+]([O-])[O-].[Cu+2].c1cnc2c(c1)ccc1cccnc12 [Cu(II) complex, [Cu(phen)(C-dmg)(H2O)]NO3] ; retrieve measured IC50.
10.3

###

Tested on: CYP isoforms 1A2, 2C9, 2C19, 2D6, 2B6, 2C8 and 3A4
Assay: CYP450 inhibition assay, summary over all tested isoforms
Assay type: in vitro ADME, human
Settings: pooled probe substrates; read-out: IC50 values against all tested isoforms
pIC50: −log10 of the molar value.
Endpoint label: pIC50

Param item = CC(C)(N)C(=O)[O-].O.O=[N+]([O-])[O-].[Cu+2].c1cnc2c(c1)ccc1cccnc12 [Cu(II) complex, [Cu(phen)(C-dmg)(H2O)]NO3] ; retrieve measured pIC50.
5.00 to 5.30

###

Target: CYP 1A2 (Homo sapiens, UniProt P05177)
Construct: tissue Sekisui Xeno Tech, LLC; host or cells: pooled human liver microsomes
Sequence (P05177 whole entry): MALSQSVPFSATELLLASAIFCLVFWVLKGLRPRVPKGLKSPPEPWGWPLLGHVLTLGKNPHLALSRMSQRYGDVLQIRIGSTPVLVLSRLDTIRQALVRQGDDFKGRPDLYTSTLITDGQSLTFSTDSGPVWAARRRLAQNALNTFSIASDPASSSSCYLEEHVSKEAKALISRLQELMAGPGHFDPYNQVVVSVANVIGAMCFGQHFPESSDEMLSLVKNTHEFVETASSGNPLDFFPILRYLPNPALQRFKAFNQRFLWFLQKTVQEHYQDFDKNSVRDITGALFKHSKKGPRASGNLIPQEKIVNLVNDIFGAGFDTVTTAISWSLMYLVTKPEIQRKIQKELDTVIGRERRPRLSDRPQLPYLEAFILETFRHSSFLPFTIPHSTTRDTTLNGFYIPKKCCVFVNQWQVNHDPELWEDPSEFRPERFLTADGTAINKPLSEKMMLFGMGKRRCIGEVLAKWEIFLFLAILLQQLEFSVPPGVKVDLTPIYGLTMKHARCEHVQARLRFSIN
Experiment: CYP450 inhibition assay, pooled human liver microsomes
Format: in vitro ADME
Conditions: probe phenacetin
Endpoint label: IC50 (µM)
Give the value in µM but do not write µM after it.

Param item = CC(C)(N)C(=O)[O-].O.O=[N+]([O-])[O-].[Cu+2].c1cnc2c(c1)ccc1cccnc12 [Cu(II) complex, [Cu(phen)(C-dmg)(H2O)]NO3] ; retrieve measured IC50.
8.01

###

Target: CYP 2C9 (Homo sapiens)
Construct: Pooled human liver microsomes (Sekisui Xeno Tech, LLC., Kansas City, KS, USA) were incubated; tissue Sekisui Xeno Tech, LLC; host or cells: pooled human liver microsomes
Sequence (P11712 whole entry): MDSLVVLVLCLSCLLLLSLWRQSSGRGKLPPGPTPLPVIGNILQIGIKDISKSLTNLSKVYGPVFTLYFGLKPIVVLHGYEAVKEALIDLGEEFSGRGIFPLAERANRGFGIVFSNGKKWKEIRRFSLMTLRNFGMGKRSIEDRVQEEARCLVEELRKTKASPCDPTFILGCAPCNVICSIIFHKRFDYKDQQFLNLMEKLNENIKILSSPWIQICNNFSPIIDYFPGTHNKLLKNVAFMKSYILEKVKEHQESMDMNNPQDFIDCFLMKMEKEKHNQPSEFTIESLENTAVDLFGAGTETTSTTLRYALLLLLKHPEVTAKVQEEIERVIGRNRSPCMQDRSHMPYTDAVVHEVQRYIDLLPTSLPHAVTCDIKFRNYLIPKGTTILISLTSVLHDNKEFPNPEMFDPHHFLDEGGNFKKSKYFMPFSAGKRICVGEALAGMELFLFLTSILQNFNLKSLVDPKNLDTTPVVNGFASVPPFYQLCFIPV
Experiment: CYP450 inhibition assay, pooled human liver microsomes
Format: in vitro ADME
Settings: probe tolbutamide
Endpoint label: IC50 (µM)
Give the value in µM but do not write µM after it.

Param item = CC(C)(N)C(=O)[O-].O.O=[N+]([O-])[O-].[Cu+2].c1cnc2c(c1)ccc1cccnc12 [Cu(II) complex, [Cu(phen)(C-dmg)(H2O)]NO3] ; retrieve measured IC50.
8.56
